Observation Type: IC50 (µM)
Numeric answer only, unit µM assumed.

Bench note, UniProtKB P48736: entry O=C1NC(=O)/C(=C/c2ccc3c(c2)OCO3)S1 [Compound 2, reference compound] , its IC50 = 0.04

Bench note, UniProtKB P48736: entry O=C1NC(=N\[C@@H](Cc2c[nH]c3ccccc23)C(=O)O)/C(=C/c2ccc3c(c2)OCO3)S1 , its IC50 = 11

Bench note, UniProtKB P48736: entry O=C1NC(=S)/C(=C/c2ccc3c(c2)OCO3)S1 , its IC50 = 0.12

Bench note, UniProtKB P48736: entry C[C@H](/N=C1\NC(=O)S\C1=C/c1ccc2c(c1)OCO2)C(=O)O , its IC50 = 14.5

Bench note, UniProtKB P48736: entry CSC1=NC(=O)S/C1=C\c1ccc2c(c1)OCO2 , its IC50 = 0.06

---

Field: IC50. Provide a value for each of the molecules that follow.
Numeric answer only, unit µM assumed.

Bench note, PI3Kβ (Homo sapiens): entry O=C1NC(=S)/C(=C/c2ccc3c(c2)OCO3)S1 [Compound 4] , its IC50 = 0.15

Bench note, PI3Kβ (Homo sapiens): entry O=C1NC(=N\[C@@H](Cc2c[nH]c3ccccc23)C(=O)O)/C(=C/c2ccc3c(c2)OCO3)S1 [Compound 7ab] , its IC50 = 80

Bench note, PI3Kβ (Homo sapiens): entry O=C1NC(=O)/C(=C/c2ccc3c(c2)OCO3)S1 [Compound 2, reference compound] , its IC50 = 0.6

Bench note, PI3Kβ (Homo sapiens): entry C[C@H](/N=C1\NC(=O)S\C1=C/c1ccc2c(c1)OCO2)C(=O)O [Compound 7aa] , its IC50 = 94

---

Field: IC50. Provide a value for each of the compounds that follow.

Bench note, PI3Kα (Homo sapiens, UniProt P42336): entry CSC1=NC(=O)S/C1=C\c1ccc2c(c1)OCO2 , its IC50 = 0.056 µM

Bench note, PI3Kα (Homo sapiens, UniProt P42336): entry C/N=C1\NC(=O)S\C1=C/c1ccc2c(c1)OCO2 , its IC50 = 90 µM

Bench note, PI3Kα (Homo sapiens, UniProt P42336): entry CC(O)C/N=C1\NC(=O)S\C1=C/c1ccc2c(c1)OCO2 (stereo not drawn) , its IC50 = > 100 µM

Bench note, PI3Kα (Homo sapiens, UniProt P42336): entry O=C1NC(=N\[C@@H](Cc2c[nH]c3ccccc23)C(=O)O)/C(=C/c2ccc3c(c2)OCO3)S1 , its IC50 = 26 µM

Bench note, PI3Kα (Homo sapiens, UniProt P42336): entry COc1ccc(C/N=C2\NC(=O)S\C2=C/c2ccc3c(c2)OCO3)cc1OC , its IC50 = > 100 µM

Bench note, PI3Kα (Homo sapiens, UniProt P42336): entry C[C@H](/N=C1\NC(=O)S\C1=C/c1ccc2c(c1)OCO2)C(=O)O , its IC50 = 19 µM

---

# UniProt:O00329: IC50 values follow
# Sequence (O00329 whole entry, species assumed): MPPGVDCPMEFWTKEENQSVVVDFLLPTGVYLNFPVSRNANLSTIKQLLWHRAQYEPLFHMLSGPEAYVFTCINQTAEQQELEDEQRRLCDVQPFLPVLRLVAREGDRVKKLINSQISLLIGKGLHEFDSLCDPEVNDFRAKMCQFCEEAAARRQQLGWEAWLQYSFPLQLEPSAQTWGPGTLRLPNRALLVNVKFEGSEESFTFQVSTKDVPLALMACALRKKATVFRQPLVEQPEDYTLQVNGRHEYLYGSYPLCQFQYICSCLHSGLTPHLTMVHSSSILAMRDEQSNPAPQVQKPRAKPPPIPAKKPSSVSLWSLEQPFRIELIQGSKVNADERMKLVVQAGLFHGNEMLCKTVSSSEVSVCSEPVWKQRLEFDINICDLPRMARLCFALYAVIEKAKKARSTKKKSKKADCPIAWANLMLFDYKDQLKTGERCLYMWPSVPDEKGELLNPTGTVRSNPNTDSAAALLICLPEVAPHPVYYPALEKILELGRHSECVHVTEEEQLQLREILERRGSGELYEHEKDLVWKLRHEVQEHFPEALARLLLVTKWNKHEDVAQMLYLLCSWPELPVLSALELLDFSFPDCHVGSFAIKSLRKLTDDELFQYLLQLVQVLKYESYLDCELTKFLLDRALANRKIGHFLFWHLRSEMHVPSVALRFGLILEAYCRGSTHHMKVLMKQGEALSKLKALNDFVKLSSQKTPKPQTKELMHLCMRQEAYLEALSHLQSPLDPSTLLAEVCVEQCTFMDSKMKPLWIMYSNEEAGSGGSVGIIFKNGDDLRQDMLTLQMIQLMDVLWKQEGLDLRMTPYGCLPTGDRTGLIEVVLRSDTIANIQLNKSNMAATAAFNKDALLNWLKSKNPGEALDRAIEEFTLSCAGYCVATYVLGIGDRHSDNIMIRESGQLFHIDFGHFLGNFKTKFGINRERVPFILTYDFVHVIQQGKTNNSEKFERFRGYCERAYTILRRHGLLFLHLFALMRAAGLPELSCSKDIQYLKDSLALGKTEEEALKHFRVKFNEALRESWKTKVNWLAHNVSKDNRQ
# Sequence (P27986 whole entry partner, species assumed): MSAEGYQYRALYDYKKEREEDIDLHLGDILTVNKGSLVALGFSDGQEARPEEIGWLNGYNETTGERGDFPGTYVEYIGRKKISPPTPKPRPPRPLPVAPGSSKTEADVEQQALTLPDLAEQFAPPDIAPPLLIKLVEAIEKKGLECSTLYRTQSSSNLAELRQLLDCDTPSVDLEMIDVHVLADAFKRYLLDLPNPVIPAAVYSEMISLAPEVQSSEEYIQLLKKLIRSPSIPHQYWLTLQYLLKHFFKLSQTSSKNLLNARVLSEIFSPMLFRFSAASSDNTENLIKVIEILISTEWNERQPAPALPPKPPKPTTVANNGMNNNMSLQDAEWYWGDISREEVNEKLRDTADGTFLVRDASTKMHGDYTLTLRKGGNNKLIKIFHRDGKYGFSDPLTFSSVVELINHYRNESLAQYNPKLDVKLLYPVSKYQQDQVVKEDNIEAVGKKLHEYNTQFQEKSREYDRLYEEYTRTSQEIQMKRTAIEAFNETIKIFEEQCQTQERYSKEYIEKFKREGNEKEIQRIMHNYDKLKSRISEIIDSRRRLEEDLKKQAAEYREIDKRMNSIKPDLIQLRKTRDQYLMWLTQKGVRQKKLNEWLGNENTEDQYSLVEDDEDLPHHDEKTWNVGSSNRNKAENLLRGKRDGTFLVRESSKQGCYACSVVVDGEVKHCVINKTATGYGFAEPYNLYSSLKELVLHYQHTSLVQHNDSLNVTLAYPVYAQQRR
Numeric answer only, unit µM assumed.

Consider O=C1NC(=S)/C(=C/c2ccc3c(c2)OCO3)S1 [Compound 4] . Its measured IC50 is 0.76

Consider O=C1NC(=N\[C@@H](Cc2c[nH]c3ccccc23)C(=O)O)/C(=C/c2ccc3c(c2)OCO3)S1 [Compound 7ab] . Its measured IC50 is 43

Consider CSC1=NC(=O)S/C1=C\c1ccc2c(c1)OCO2 [Compound 5] . Its measured IC50 is 0.038

Consider C[C@H](/N=C1\NC(=O)S\C1=C/c1ccc2c(c1)OCO2)C(=O)O [Compound 7aa] . Its measured IC50 is 62

Data provenance is paper PMC3755381.
